Task for the reader: assign each of the following compounds its reported inhibition at 1 µM.
target: Smo (Mus musculus, UniProt P56726); construct: endogenous in cells; host or cells: NIH-3T3 cells stably carrying the Gli reporter plasmid; assay: Gli reporter luciferase assay in NIH-3T3/Gli reporter cells stimulated with mouse Shh-N end fragment; type: cell-based; conditions: NIH3T3; 1 μM compound; NIH-3T3/Gli reporter cells with mouse Shh-N culture supernatant, 48 hr; luciferase activity, control without compound as 100; read-out: inhibitory rate (%) at 1 μM
Sequence (P56726 33-793): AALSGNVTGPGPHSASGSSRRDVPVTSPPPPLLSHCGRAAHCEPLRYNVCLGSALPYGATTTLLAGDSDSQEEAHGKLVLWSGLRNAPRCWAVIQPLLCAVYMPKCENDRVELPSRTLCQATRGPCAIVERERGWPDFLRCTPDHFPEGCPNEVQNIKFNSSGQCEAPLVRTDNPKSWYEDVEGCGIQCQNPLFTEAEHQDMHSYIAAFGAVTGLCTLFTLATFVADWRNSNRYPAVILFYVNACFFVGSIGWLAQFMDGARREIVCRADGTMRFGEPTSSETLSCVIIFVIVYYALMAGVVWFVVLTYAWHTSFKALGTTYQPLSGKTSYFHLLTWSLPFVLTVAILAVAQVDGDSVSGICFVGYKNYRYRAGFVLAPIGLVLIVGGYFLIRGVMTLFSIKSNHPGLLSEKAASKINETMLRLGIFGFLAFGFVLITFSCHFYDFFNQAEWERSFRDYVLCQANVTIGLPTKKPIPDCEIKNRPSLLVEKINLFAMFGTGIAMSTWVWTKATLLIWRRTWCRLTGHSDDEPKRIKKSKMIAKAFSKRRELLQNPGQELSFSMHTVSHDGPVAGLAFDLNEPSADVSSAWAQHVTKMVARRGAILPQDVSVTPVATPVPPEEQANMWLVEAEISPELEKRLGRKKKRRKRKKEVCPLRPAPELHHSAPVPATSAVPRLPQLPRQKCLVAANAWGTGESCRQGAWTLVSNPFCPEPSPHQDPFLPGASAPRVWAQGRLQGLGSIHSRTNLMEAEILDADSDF
Give the quantity in %, number only.

Request: Please give the documented inhibition at 1 µM of Cc1nc2c(c(OCC(F)(F)F)c(C(=O)NC3CCN(C(=O)CO)CC3)n2C)c(=O)n1Cc1ccc(F)cc1 [Example 5]
Result: 100

Request: Please give the documented inhibition at 1 µM of CCc1nc2c(c(OC(C)C)c(C(=O)NC3CCN(C(=O)CO)CC3)n2C)c(=O)n1CC(=O)c1ccccc1 [Example 22]
Result: 98

Request: Please give the documented inhibition at 1 µM of CCc1nc2c(c(OC(C)C)c(C(=O)NC3CCN(C(=O)CO)CC3)n2C)c(=O)n1CC(=O)c1ccc(F)cc1 [Example 34]
Result: 97

Request: Please give the documented inhibition at 1 µM of CCOc1c(C(=O)NC2CCN(C(=O)CO)CC2)sc2nc(C)n(CC(=O)c3ccccc3)c(=O)c12 [Example 18]
Result: 97

Request: Please give the documented inhibition at 1 µM of Cc1nc2c(c(OCC(F)(F)F)c(C(=O)NC3CCN(C(=O)CO)CC3)n2C)c(=O)n1Cc1ccccc1Cl [Example 14]
Result: 95

Request: Please give the documented inhibition at 1 µM of CCCCCn1c(C)nc2c(c(OCC(F)(F)F)c(C(=O)NC3CCN(C(=O)CO)CC3)n2C)c1=O [Example 11]
Result: 96

Request: Please give the documented inhibition at 1 µM of CCc1nc2c(c(OCC(F)(F)F)c(C(=O)NC3CCN(C(=O)CO)CC3)n2C)c(=O)n1CC(=O)c1ccc(F)cc1 [Example 33]
Result: 96

All values here come from patent US8614208B2.
